Target: T1, P2-AA-1HGe-A
T1 chain: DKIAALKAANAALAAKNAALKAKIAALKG
Experiment: two-hybrid library CCmax;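 note: natural log of median RNA to DNA barcode read ratio; higher means stronger binding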
Conditions: mean of both orientations
# if measured interaction score < 2: Y  # else: N

Some solved entries appear below for comparison.
DEIAALEAANAALAAENAALEAEIAALEG [P1-AA-1HGe-A] ... Y
DEIAALEATNAALTAENAALEAEIAALEG [P1-AA-1HGe-T] ... N
DEIAALEAWNAALWAENAALEAEIAALEG [P1-AA-1HGe-W] ... Y

Does the reported interaction score of the following binder sit strictly below 2? DEIAALEAHNAALHAENAALEAEIAALEG [P1-AA-1HGe-H]
N

Does the reported interaction score of the following binder sit strictly below 2? DEIAALEASNAALSAENAALEAEIAALEG [P1-AA-1HGe-S]
Y

Does the reported interaction score of the following binder sit strictly below 2? DEIAALEAKNAALKAENAALEAEIAALEG [4H465-AA]
Y

Does the reported interaction score of the following binder sit strictly below 2? DEIAALEADNAALDAENAALEAEIAALEG [P1-AA-1HGe-D]
Y

Does the reported interaction score of the following binder sit strictly below 2? DEIAALEAQNAALQAENAALEAEIAALEG [P1-AA-1HGe-Q]
N

Does the reported interaction score of the following binder sit strictly below 2? DEIAALEAMNAALMAENAALEAEIAALEG [P1-AA-1HGe-M]
N

Does the reported interaction score of the following binder sit strictly below 2? DEIAALEAYNAALYAENAALEAEIAALEG [P1-AA-1HGe-Y]
Y
